Experiment: protease stability score; higher = more stable; yeast display proteolysis, trypsin and chymotrypsin;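 further: log10 excess protease needed over predicted unfolded state with 0 meaning unfolded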
Think of 0.6 as a floor: if protease stability score stands on it or above, it is true; beneath it, false.

> print(dat)
                            sequence.string  assigned.label
1  EEQVEELMHRIMTAIKTNNPDDLKRNIDPNAKIRIGDTVIHGMEEYVHQFEEEVKQLRIEIIDVQQDIKGDKVVVKIRFRRQHNGRPDETVTVFTAKMDNGKVKSLDFQEDG            true
2  DDHSSARKFADEFREMMKTGDSTKADELFDPNVRVEVGDKRYHGREQAVDWIRHLVDRYDHIEIRIDHITVRGDRISIVFTVHYEKNGETTYDRYVMVAVDRNGRAQIKMLRKG            true
3  DHEALKVLHKFMEALNTGDPDQLNKNIDPNARFVVGDKTINGREQFREDQRRLKEQIRVYATIRTIRVEGDHANLTVEYEQDHNGKPDSNEVTVTAKLKNGKIQEVREDRKQ           false
4  EEQAVEVMNRYIRALQTGSKQDLRDNMDPNVKAIYGDSVIHGREEIARHLVKTMKDIRVENDVRDMRFDGDKIELRAKWVFEHDGRPRTNKYVVHAVAHDGKIKHINLQEDQ           false
5  DERDVKRVEEWVKAEHTGDKDKMKELLDENAEIQIGDRSITGRETRAEELRKRQEQMRVRFRKVDFQHRNGQARVDMDVQNDHNGKPHTHRVDANFQLHNGKVQRVKMTSHK           false

* * *

Assay: protease stability score; higher = more stable; yeast display proteolysis, trypsin and chymotrypsin;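 further: log10 excess protease needed over predicted unfolded state with 0 meaning unfolded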
measured_property: protease stability score

> print(dat)
                             sequence.string  reported
 1  DEREARDVQHRINKNDPQSHEDQVDEDVKLQIGDTTWHGREELNDVIRRVRESADHIKYERVEVDGDTVVADVVYTINGKNIKLRLVVHVKNGRIKYMNMTATNPDDLRTLNEIIQ      1.25
 2  EDRQNQEVNKKAQKGDWQHLRELADKDVTLQVGDKQYHGREKFQELLKKLETSVDRFKVDSITFHNGKVKVRAQAVVNGQKIEFVIIITFHNGRAKSMRIQARDEDLEKELLKMLS     0.944
 3  DEDTLKKMAQKIADAIRKGDEDQMERLADEDARMSYGDTTWHGRQEVKKAVREFRNQFDHLTIKRITVKGEKVKIDAEFTVNGREVSFVVIAHVNNGRLKEVVVHFTDPDTLHEALK     0.622
 4  DEKEIRKLLETMLKAFVNGNLEVVRKMLKDDGEVEYLDTRRHGPDRAVELVKRLLDLGYEVEYKEVHVKGDTVTANVEANADGKTVRFQVTYQARGRRVDNFKVKYDEDAQKVIKHG      1.79
 5  DEDANRKAEEFAQNLRENDEDRLQQLVDPNARLNVGEFSVHGRTELTHQLRRVTREMRVEVQIRDIRVQNGHAHLDIEVVIDHNGKPSSRVLRMVVDFRNGKIQNLDVRTDQ     0.601
 6  DREQAERLIRIMENERTGDPDKVVEMVDPNAKFKVGNTTYKGREELRKEVETRQKKARFEMSIQDYSVHGDTASIRYTLVINVNGQPHESTFNLEARFHNGKVRELHVKFDEQRMRDIQS      0.49
 7  DEHELNKFEQLLRDRETGDEEHLKRLMDKDARVNVGDKNVHGREEAANQQVERVKRMDVRILHMDLKDNNGKINADITRIIHTNGHPDKHQFVLTVDVKNGRVQNIRQDDTS    -0.284
 8  DEKRQQDQAKKIADALSTGDEDQFLQNMDPNAHVRVGDKTFHGRDDVRRMLREVNEHVDEINVHDVSVHNGQVDAVLVWEHNGRKQRKKVVVDRHNGRVHSVEIRDQ    -0.189
 9  DEDKLKSMFRQLQRVLTQGNPHDARKLFDEDAHLVVGDKRWTGREEVVKFIEELTRRYDHLEIKSFSVSNGRMVVNASAHVNGKSIDIHYIMEVDNGRVKYLRVDVRNEEELKKVLS      1.27
10  DEDADRKFQDMVENEHRGDNDKLKKMADKNVKFTVGDKSIHGMEDYATEVRKRKERSRVRYKDVRSNDHNGRVVVKFDAQRNHNGQPKDFHVTVHFRMENGKLKEMEVRTDQ     0.052
11  DDRDIKQAADRFLEDIKTNNPENVRKLVDENARVQIGDKQYRGKERIQEAMEEWIKRVDHWRIEDIKIHGDQVHVKMRINVNGRNLTFIMVVSIKNGTLKTLTMNVTDTEKLREMLR      1.27
12  DEDTALTIAEQVMKAIQRGDEEEAEKLGKPDVEVQAFNERNKGQEMLKKAVEYVKKVGDQFEYKETRKEGNQVVTVVQVTRGGRTMEYKVDVKVEGGKVKLWRVEIPEEFAKVVEKS     0.013
13  DEEALKVLKEWIKAVETGDEERIKELVDKDVTVQVGDKVIRGREQVAKTVRKEREEMRVEINFDRLHADGDRVSAEFKVVEETNGRPNTKKQRMSARVHNGKFKSMEIQDDG     0.205
14  DEEDLRKQANEVAEMFMHGDPTDAREQFDKHAEVQYGDKVVHGKEQAAQLVKEFRDNVDRVELKRVEAHGDKVTVTVVFTVNGRKVVIVFEMRIHNGKIKSVDAHVTSEELHKRMQD     0.155
15  DNEEEAKKFVEELKRQYDEGNEHQIANQAPENATARVGDKNYHGRENVETYLRQIVRRADTVEIRIRSVEVHGDNVVVDFHYVLEYNGTRRNVRMKLVLDDVNGRKVALVIVQS     0.572
16  DKEILDLVNEFLKAQRDNDPDRVSELADPNVKVHYGDKQIRGREEVNKQVEKEQKEIQVDFRIKHVTVENGRADLNFRYHANVNGQPISFDARIEMQFHNGRLKRLVLRMPEEAVKTMDS     0.118
17  DDEDAKHLMQVLQNGDEDRFAELVDENAHQTIGDKTIHGRSEFDRIHEKLKKRIDNFRVNDYRIDNGSVNADVSANVNGQKIRFKYQAHVTNGHIKEMRFQATDPRQEDKWHEMQK    -0.031
18  DEENLEIAKDLIRAQETGDEERIQNLLDPNVKIDVGDKSIHGREHLRKTQQEQKRNMRFDVDSVENKVHNGQVRVDAHVRERHNGQPTTKRYTLHMHFHNGKVERIRLQDKG     0.318
19  DEELKKQMDEALKARQNNDEQRLRDLFDPNVHIQVGDKVITGREEYAKRVVTTLRQLRFKYTVKSVKTKPNHIEIDVEVHNNRNGNPSNRKIVINMEADNGKISHLSVEHDG     0.585
20  DEKEYAEQFFRHMEEIYQNGDEDRAQELFDPNARMEVGDKEVHGNEKFREEIHKIKETSDRFSIRVKEIDVHGDKIVVEAERSFEHNGQRRSEVYTVRMVIENGQAKIKSAHHK     0.235
21  DEKKVKKVADKVMRVAANGDNETARKLGKPDVTFEAGSNKMRGVEQVDKYYEKVKRQGNELHIKEVKVEGDRAKVKYDIKIGGTEMTVTAEVYIENDKVEKARIEMDEDYEKKVTKG    -0.338
22  DEEKNTRLIKEFMEALRTGDEHQVRRLMDPNAKVVYGDTRFHGREEAAKFIVEWASRIDHIDVKDMRVNGNRASLTFVANFDGRNHDVKIDFTLQDGKFRQVNFTSN      1.09

* * *

Recorded measurements of protease stability score, one per entry
Assay: protease stability score; higher = more stable; yeast display proteolysis, trypsin and chymotrypsin;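 further: log10 excess protease needed over predicted unfolded state with 0 meaning unfolded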
measured_property: protease stability score

> print(dat)
                            sequence.string  reported
1  DEERAMKDAVDRMEKNVKNGNFDKMMNLADKDAKVVVGDDTYRGRDNNVKKNKEDKEEFDHAEVRFKEVEVENGRISIHADITLNVNGQDVTRRFNFELRNHNGTALIVRLTLK     0.188
2  DEDDLVRQMVDRAEEAAQTGDEKKFANLFDPNARFRYGDKDVHGREEWEKRLDEERKRADRLHIKFDSVRVHGDKVDLHFTWRVVVNGESSERVVIIHAVKQGDRIVAKYVREG     0.611
3  DEELRRRLEKFFRDLRNGNESEAVKLVDPNARFNIGDTEYHGMHDYARELLRQRHKLNWHVRQVTIEAKNGHVNITMSVQFNVNGRPDSYTNTVRAVLHNGRVKEMSNRVPKDQLHKIKK     0.209
4  DDKEEAESIAKTLQKILDTGNEEDYLNMADEDVEINIGDKHYRGREEFLKWVQKMTRQVDHLRIDVKSVEVSGDKAHIQYHLELNHDGKNETHKLVMVARKSNGRLTIKKITHQ      1.19
5  DETELRKMQEVQEHNDPDEWKKQADKDVRLKVGNKRLHGREDVHRYLKTHRDQADHIRYKSFDFDGDKADITFHAVVNGRTFEANQEIRIHNGRIQEVNIHYTDDQVQRELEELFG    -0.195
